- TARGET_OF_ASSAY: Receptor tyrosine-protein kinase erbB-2 (Homo sapiens)
- Sequence (P04626 whole entry): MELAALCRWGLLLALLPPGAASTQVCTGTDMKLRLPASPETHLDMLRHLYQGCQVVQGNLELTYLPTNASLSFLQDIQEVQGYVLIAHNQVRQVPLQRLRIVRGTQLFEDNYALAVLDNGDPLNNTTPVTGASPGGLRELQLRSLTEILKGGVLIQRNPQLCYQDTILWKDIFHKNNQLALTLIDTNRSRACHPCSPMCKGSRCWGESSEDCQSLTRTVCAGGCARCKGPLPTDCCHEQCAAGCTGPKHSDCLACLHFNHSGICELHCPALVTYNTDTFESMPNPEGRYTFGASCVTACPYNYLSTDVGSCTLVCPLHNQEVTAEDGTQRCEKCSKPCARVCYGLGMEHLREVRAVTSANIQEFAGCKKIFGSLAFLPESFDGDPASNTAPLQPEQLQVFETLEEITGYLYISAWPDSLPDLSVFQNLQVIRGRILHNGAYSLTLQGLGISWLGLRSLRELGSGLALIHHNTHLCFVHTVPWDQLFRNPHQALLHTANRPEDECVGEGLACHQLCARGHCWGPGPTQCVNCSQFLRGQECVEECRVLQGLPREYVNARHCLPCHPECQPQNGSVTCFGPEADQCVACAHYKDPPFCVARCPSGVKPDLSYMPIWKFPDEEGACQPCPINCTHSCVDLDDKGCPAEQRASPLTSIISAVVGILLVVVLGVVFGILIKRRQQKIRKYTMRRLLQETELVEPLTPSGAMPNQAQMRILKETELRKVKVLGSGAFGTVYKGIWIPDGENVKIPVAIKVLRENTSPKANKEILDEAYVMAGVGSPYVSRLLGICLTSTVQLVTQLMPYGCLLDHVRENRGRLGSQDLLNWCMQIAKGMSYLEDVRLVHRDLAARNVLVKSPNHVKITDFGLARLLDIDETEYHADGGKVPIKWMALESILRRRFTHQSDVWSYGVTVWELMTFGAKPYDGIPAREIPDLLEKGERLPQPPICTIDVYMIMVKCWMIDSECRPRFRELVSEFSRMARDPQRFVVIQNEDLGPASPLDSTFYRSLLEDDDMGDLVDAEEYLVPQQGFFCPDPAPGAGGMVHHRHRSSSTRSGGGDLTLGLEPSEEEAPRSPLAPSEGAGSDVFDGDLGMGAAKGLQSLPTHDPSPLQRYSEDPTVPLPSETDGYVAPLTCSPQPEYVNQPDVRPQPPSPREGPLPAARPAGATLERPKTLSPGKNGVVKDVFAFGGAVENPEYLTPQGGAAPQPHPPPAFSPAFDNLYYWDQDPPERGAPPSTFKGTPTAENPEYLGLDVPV
- PROCEDURE_DETAILS: Inhibition of human HER2 in human A549 cells by ELISA method
# pIC50 values compiled below
API: returns pIC50 as number; meaning -log10 of concentration in mol/L.

[
  {
    "COMPOUND_STRUCTURE_STRING": "O=C(Nc1cccc(NC(=O)c2ccccn2)c1)NC1CCCCC1",
    "TEST_VALUE": 7.19
  }
]

Inquiry: For `O=C(CCSC(=S)N1CCN(c2ccccc2)CC1)Nc1cccc(NC(=O)c2ccccn2)c1` , what is its reported pIC50?
Reply text: 7.27

Inquiry: pIC50 lookup needed for `O=C(CSC(=S)N1CCCCC1)Nc1cccc(NC(=O)c2ccccn2)c1` , thanks.
Reply text: 6.98

====

Recorded IC50 by entry
- TARGET_OF_ASSAY: Epidermal growth factor receptor (Homo sapiens, UniProt P00533)
- Sequence (P00533 whole entry): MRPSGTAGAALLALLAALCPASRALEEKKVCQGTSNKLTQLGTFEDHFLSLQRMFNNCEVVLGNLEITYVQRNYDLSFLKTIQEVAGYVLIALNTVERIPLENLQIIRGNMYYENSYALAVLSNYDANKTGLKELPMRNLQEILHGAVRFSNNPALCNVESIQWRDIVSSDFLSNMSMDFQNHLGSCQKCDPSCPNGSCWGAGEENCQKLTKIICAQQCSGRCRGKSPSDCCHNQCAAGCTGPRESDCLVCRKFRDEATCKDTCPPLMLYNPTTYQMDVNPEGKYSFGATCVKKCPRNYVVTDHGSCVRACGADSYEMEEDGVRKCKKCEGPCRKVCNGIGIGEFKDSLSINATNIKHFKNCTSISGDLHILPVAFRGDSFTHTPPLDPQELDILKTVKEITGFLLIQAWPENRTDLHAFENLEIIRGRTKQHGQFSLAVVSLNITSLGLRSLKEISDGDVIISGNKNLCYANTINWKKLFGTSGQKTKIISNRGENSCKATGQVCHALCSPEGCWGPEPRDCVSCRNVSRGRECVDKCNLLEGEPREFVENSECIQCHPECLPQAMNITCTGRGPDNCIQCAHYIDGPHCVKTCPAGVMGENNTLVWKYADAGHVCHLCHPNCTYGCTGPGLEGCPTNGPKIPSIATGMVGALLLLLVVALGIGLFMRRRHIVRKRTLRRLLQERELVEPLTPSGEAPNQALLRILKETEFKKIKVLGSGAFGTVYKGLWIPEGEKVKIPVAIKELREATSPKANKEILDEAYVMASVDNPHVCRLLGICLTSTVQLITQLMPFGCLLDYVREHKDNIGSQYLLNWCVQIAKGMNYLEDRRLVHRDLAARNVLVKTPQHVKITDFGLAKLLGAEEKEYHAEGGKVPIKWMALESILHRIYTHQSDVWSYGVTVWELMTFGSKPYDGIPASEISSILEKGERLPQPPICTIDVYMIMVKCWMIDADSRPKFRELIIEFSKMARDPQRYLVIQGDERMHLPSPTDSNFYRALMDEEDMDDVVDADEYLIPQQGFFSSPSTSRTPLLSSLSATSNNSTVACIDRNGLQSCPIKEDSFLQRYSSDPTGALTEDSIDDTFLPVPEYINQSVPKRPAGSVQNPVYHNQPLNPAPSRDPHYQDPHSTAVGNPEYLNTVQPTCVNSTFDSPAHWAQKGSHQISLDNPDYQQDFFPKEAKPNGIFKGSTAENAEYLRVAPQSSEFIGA
- PROCEDURE_DETAILS: biochemical
- Type: cell-based, Sf9
# value in nM; strip the unit string

[
  {
    "COMPOUND_STRUCTURE_STRING": "O=C(Nc1cccc(NC(=O)c2ccccn2)c1)NC1CCCCC1",
    "READOUT_UNIT": "nM",
    "TEST_VALUE": 147
  },
  {
    "COMPOUND_STRUCTURE_STRING": "O=C(CSC(=S)N1CCCCC1)Nc1cccc(NC(=O)c2ccccn2)c1",
    "READOUT_UNIT": "nM",
    "TEST_VALUE": 84
  }
]

Switching to the query record.
Inquiry: Epidermal growth factor receptor (Homo sapiens, UniProt P00533) / IC50 / `O=C(CCSC(=S)N1CCN(c2ccccc2)CC1)Nc1cccc(NC(=O)c2ccccn2)c1` : value?
Reply text: 70

====

- Tested on: A549
- PROCEDURE_DETAILS: Induction of apoptosis in human A549 cells assessed as reduction in MCL-1 protein level after 2 hrs by sandwich ELISA method
- Assay type: functional, cell-based
- CONDITION: A549, 2 h
# IC50 listing for each entry below
Your answer should be a plain number; it is taken to be in µM.

[
  {
    "COMPOUND_STRUCTURE_STRING": "CNC(=O)c1cc(Oc2ccc(NC(=O)Nc3ccc(Cl)c(C(F)(F)F)c3)cc2)ccn1",
    "VALUE_TYPE": "IC50",
    "READOUT_UNIT": "µM",
    "TEST_VALUE": 5.53
  }
]

Inquiry: Reported IC50 for `O=C(CSC(=S)N1CCCCC1)Nc1cccc(NC(=O)c2ccccn2)c1` : what is it?
Reply text: 6.7
